Assay: Phase 1 PK Part 2: relative bioavailability, dose proportionality, food effect of milled API tablet
Format: in vivo, human
Details: human, plasma, po, 10 mg, Treatment E: 2 × 5 mg oral capsule, fasting; mean; read-out: AUC∞
From the text: This is a Phase 1, open-label, single dose, multicenter, 4-part study in healthy adult participants. Potential participants will be screened from Day −28 to Day −2 to determine participants' eligibility for study participation. […] In Parts 1 and 2, plasma concentrations will be determined for aticaprant. […] The following plasma PK parameters of aticaprant will be determined. […]
measured quantity: AUC(0-inf) (ng·h/mL)

>>> reading("Cc1cc(C)cc(C2CCCN2Cc2ccc(Oc3ccc(C(N)=O)cc3F)cc2)c1 (stereo not shown)")
307
